System: Plasmodium berghei
Experiment: Screen against P. berghei liver stage (PbLuc), transformed with Luciferase, at 10uM
Assay type: functional, HepG2
Conditions: tested at 10 uM
The whole screen tested about 69,000 compounds, of which about 8,600 (12%) showed an effect of 50% or more. The sample holds strong results, similar compounds and a random draw of the others, so the mix is not that of the screen.
Label yes (1) for high-side INHIBITION (at or above 40%) and no (0) for low-side INHIBITION (below it).

Recorded results for 3 molecules are shown here.
## Task For this molecule, is measured INHIBITION 40% or higher? CCN1CCn2c(C)cnc2C12CCN(C(=O)c1ccc(Cl)cc1)CC2
## Result no (0)

## Task Identify whether the reported INHIBITION of the following molecule is 40% or greater: O=C(CCn1cncn1)N1CCCC(CO)(CCCc2ccccc2)C1 (stereo unspecified)
## Result yes (1)

## Task Is reported INHIBITION greater than or equal to 40% here: CCOc1ccnc(N2CCN(C(=O)c3cccnc3)CC2)n1
## Result no (0)

New cases:
## Task Form field: INHIBITION at least 40%? Entry: Cc1cc(C)c(C(=O)N(C)CCN(C)C(=O)OC(C)(C)C)[nH]1
## Result no (0)

## Task Is it the case that OC(CN1CCC(CNCc2ccccn2)CC1)c1ccccc1 (stereo unspecified) has INHIBITION reaching or exceeding 40%?
## Result no (0)

## Task Assess whether reported INHIBITION for CCCN1CCCN(C(=O)c2ccc(Oc3cccnc3)cc2)CC1 sits at 40% or higher.
## Result yes (1)

## Task Is it the case that CCCN1CCN(C(=O)c2cccnc2)CC1 has INHIBITION reaching or exceeding 40%?
## Result yes (1)

## Task # bool: INHIBITION of O=C1CO[C@H]2CN(C3CCOCC3)C[C@H]2N1Cc1ccncc1 >= 40%
## Result no (0)

## Task Is INHIBITION at least 40%? Consider O=C(CCn1cnnn1)N1CCCC(CO)(CCCc2ccccc2)C1 (stereo unspecified)
## Result no (0)

---

System: Plasmodium berghei
Assay: Screen against P. berghei liver stage (PbLuc), transformed with Luciferase, at 10uM
Type: functional, HepG2
Settings: tested at 10 uM
The whole screen tested about 69,000 compounds, of which about 8,600 (12%) showed an effect of 50% or more. Shown is part of a subset that was picked to be rich in strong results.
observable: INHIBITION (%)
Numbers only, in %.

Consider the reported INHIBITION for these molecules:
## Task I am curious: what INHIBITION value has been reported for O=C(C1CCCCC1)N1CCC(n2nc(-c3ccco3)ccc2=O)CC1 ?
## Result 40

## Task Entry under review: Cc1cc(C(F)(F)F)nn1C(C)C(=O)NN1CCOCC1 (stereo unspecified) . Reported INHIBITION?
## Result -4.12

## Task INHIBITION lookup needed for CN1CCN([C@@H]2CCN(CC3=Cc4cc(Cl)ccc4OC3)C[C@H]2O)CC1 , thanks.
## Result 62.4

Lab note: each molecule below needs its INHIBITION filled in.
1. CN(Cc1ccco1)C(=O)CN1CCCC1Cn1cncn1 (stereo unspecified)
2. CC(C)N1CCOCC2(CCN(c3cnccn3)CC2)C1
3. O[C@@H]1CN(CC2=Cc3cc(Cl)ccc3OC2)CC[C@H]1N1CCCCCC1

## Result
-4.16
35.8
31.9

---

Tested on: Plasmodium berghei
Assay: Screen against P. berghei liver stage (PbLuc), transformed with Luciferase, at 10uM
Assay type: functional, HepG2
Conditions: tested at 10 uM
In all, about 69,000 compounds went through this assay and about 8,600 (12%) showed an effect of 50% or more. What follows is part of a selection rich in strong results, with near analogues and random picks from the rest.
Provide the reported INHIBITION of each item.
One number for each entry, in %.

## Task Which INHIBITION is listed for CCN1CCOC(CNCc2ccccc2OCc2cccnc2)C1 (configuration not stated) ?
## Result -46.55

## Task Return reported INHIBITION; argument: CNCCc1nc2cc(Cl)ccc2[nH]1
## Result 31.9

## Task I would be grateful if you could share the reported INHIBITION for Cn1cc(CN2CCCC(O)C2)c(-c2ccccc2F)n1 (configuration not stated) .
## Result 3.13

## Task INHIBITION for Cn1ccc(C2CCCCCN2C(=O)c2cccnc2)n1 (configuration not stated) ?
## Result -1.16

## Task Entry Cc1ccccc1-c1noc(CN2CCC(N3CCNC3=O)CC2)n1 : reported INHIBITION = ?
## Result 88.2

## Task Please give the measured INHIBITION for this compound: Cn1ccc(C2CCCCN2C(=O)c2cccc(-n3cccn3)c2)n1 (configuration not stated)
## Result 56.1

## Task For CCN1CCCn2c(nc(CNC(=O)c3cnoc3C)cc2=O)C1 , what is its reported INHIBITION?
## Result -24

## Task Which measured INHIBITION value corresponds to Cn1ccc(C2CCCCN2C(=O)c2cccc(Cn3cccn3)c2)n1 (configuration not stated) ?
## Result 15

I'm hoping you can list INHIBITION for every compound here, please.
1. CCCc1noc(CNc2ccc(C(=O)N3CCCC3)cc2C)n1
2. CN1C(=O)C(C)(C)COc2cc(NS(=O)(=O)c3ccccc3F)ccc21
3. CCn1cc(S(=O)(=O)NCC(c2ccccc2)N2CCOCC2)c(C)n1 (configuration not stated)
4. c1cnn(CC2CCCN2Cc2ccc(-n3cccn3)cc2)c1 (configuration not stated)

## Result
1: 12.7; 2: 22.3; 3: 8.335; 4: 41.2

---

Test system: Plasmodium berghei
Assay: Screen against P. berghei liver stage (PbLuc), transformed with Luciferase, at 10uM
Format: functional, HepG2
Conditions: tested at 10 uM
Hit rate of the full screen: of about 69,000 compounds, about 8,600 (12%) showed an effect of 50% or more. The sample as a whole holds a higher share of strong results than the screen did.
observable: INHIBITION
Write down the value, and be sure its unit follows.

For every listed record, write down its INHIBITION.
1. Cc1cnc(CN2CCOC(CNc3cccnn3)C2)cn1 (configuration not stated)
2. Cc1cc(C)n(CCCN(C)c2cc(C3CC3)ncn2)n1
3. CCN(CC1CCOC1)C(=O)Nc1ccc(N2CCOCC2)nc1 (configuration not stated)
4. c1ccc2ncc(CC3CCNCC3)cc2c1

## Result
["2.26%", "8.7%", "36.05%", "-0.232%"]

Give me INHIBITION for each of these compounds, listed below.
1. COCc1nc(CN2CCOC(CNc3cccnn3)C2)cs1 (configuration not stated)
2. CCn1ccnc1CN(C)c1cc(C2CCCNC2)nc(C)n1 (configuration not stated)
3. CN(C)c1cc(N(C)Cc2cc(C(C)(C)C)n[nH]2)ncn1
4. Cc1cc(CN2CCOC(CNc3cccnn3)C2)no1 (configuration not stated)
5. CCc1nc(CN2CCOC(CNc3cccnn3)C2)cs1 (configuration not stated)

## Result
14.1%
4.41%
-82.7%
7.12%
41.5%

// batch mode: one INHIBITION value per listed entry
1. O=C(N[C@@H]1C[C@@H]2CC[C@H]1C2)C1(Oc2ccc(Cl)cc2)CCNCC1
2. CCn1ccnc1CN(C)c1cc(C2CC2)ncn1
3. CCCc1nc(CN2CCOC(CNc3cccnn3)C2)cs1 (configuration not stated)

## Result
1. 9.72%
2. 52.6%
3. 58.9%

---

For each entry below, report its INHIBITION value.
Tested on: Plasmodium berghei
Assay: Screen against P. berghei liver stage (PbLuc), transformed with Luciferase, at 10uM
Type: functional, HepG2
Settings: tested at 10 uM
Hit rate of the full screen: of about 69,000 compounds, about 8,600 (12%) showed an effect of 50% or more. The sample holds strong results, similar compounds and a random draw of the others, so the mix is not that of the screen.
Give bare numbers, in %.

Record excerpt, results attached:
## Task Looking for the measured INHIBITION of Fc1cnc(N2CC[C@@H]3O[C@@H](COCc4ccccn4)CC[C@@H]32)nc1 , can you help?
## Result 18.5

## Task What value of measured INHIBITION is listed for COc1cccc(CC(=O)N2CCC(c3ccn4nccc4n3)CC2)c1 ?
## Result 23.9

## Task I am curious: what INHIBITION value has been reported for CCOC(=O)Cn1cnc2nc3n(c2c1=O)CCC3 ?
## Result 81.2

## Task Consider the molecule shown here: COc1ccc(-c2nc(C(=O)NCC3CCOC3)cs2)cc1OC (stereo unspecified) What is its recorded INHIBITION?
## Result 34.7

## Task Could you share which INHIBITION value was measured for Cc1cc(C)nc(C2CCN(C3CCOCC3)C2)n1 (stereo unspecified) ?
## Result -10.4

## Task So what does the record say about INHIBITION for Cc1ncnc2c1CCN(Cc1cccs1)CC2 ?
## Result -33

## Task Need INHIBITION of Cc1ccc(-c2nc(CNC3CCc4ncnn4C3)no2)cc1 (stereo unspecified) , thanks.
## Result 0.411

## Task Need INHIBITION, item Cc1noc(C)c1CN1CCCC2(C1)CN(Cc1nccn1C)CCO2 (stereo unspecified)
## Result 10

# map each molecule to its INHIBITION
1. Cc1noc([C@@H]2C[C@H]3OCC[C@H]3N(S(=O)(=O)c3ccccc3)C2)n1
2. O=C1COC2(CCN(Cc3ccncc3)CC2)CN1c1ccccc1
3. CCn1cc(NC(=O)c2cc(C)nc(N3CCOCC3)n2)cn1

## Result
-5.08
-27.4
15.35
